Data origin: patent US20180334496A1

Reported log10 koff is given for each of the following binders.
- Test System: T1, serum purified human Complement Factor D (human, UniProt P00746 26-253)
- T1 construct: Serum purified protein flowed over the captured antibodies; also called CFD; human CFD
- T1 sequence (P00746 26-253): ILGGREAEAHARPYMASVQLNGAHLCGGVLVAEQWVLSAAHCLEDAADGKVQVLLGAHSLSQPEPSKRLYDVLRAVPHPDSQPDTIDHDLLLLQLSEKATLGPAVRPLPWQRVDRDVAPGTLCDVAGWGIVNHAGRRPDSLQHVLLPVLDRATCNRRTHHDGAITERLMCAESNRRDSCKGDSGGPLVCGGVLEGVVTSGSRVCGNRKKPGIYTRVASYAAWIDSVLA
- Run Description: SPR Biacore, antibody on protein A chip, single cycle kinetics, 37 C;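 further: antibodies captured on the protein A surface to roughly 70 RU in HBS-EP+ buffer, with rate and affinity constants fitted using BIAevaluation software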
Remember, log10 of koff, in s⁻¹.

# Binder, Observed Measurement
measured = [
    ("28Q31S54V59D / 101V (antibody, V domains shown, KCD119 TAF variant; full antibody captured on protein A) VH: EVQLVESGGGLVQPGGSLRLSCAASGYQFTSYYMNWVRQAPGKGLEWIGDINPVTGDTDYNADFKRRFTFSLDTSKSTAYLQMNSLRAEDTAVYYCTREGPSFAYWGQGTLVTVSS VL: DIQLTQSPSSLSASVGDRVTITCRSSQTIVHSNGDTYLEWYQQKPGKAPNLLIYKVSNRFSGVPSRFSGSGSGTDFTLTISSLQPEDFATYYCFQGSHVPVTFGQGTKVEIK", -2.99),
    ("34I54I59D84S / 54G101V (antibody, V domains shown, also called 34I54I59D845 / 54G101V) VH: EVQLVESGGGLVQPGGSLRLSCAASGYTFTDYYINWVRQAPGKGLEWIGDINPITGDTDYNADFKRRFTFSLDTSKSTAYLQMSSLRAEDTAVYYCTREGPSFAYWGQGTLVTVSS VL: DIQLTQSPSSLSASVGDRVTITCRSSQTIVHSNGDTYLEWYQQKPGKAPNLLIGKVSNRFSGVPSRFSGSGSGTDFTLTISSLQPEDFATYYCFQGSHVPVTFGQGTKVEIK", -3.95),
    ("34I54I59D / 32W60W101V (antibody, V domains shown, KCD119 TAF variant; full antibody captured on protein A) VH: EVQLVESGGGLVQPGGSLRLSCAASGYTFTDYYINWVRQAPGKGLEWIGDINPITGDTDYNADFKRRFTFSLDTSKSTAYLQMNSLRAEDTAVYYCTREGPSFAYWGQGTLVTVSS VL: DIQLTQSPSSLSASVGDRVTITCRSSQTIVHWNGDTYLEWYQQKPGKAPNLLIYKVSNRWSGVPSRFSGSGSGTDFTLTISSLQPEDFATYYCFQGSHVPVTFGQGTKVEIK", -3.55),
]

Prompt line: Hello, please tell me recorded log10 koff for this one: 31S54I59D84T / 32W60W101V (antibody, V domains shown, KCD119 TAF variant; full antibody captured on protein A) VH: EVQLVESGGGLVQPGGSLRLSCAASGYTFTSYYMNWVRQAPGKGLEWIGDINPITGDTDYNADFKRRFTFSLDTSKSTAYLQMTSLRAEDTAVYYCTREGPSFAYWGQGTLVTVSS VL: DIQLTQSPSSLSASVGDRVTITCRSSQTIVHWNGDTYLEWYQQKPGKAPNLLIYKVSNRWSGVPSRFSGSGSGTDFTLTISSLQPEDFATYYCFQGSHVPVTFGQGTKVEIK
Response line: -3.65

Prompt line: Hello, please tell me recorded log10 koff for this one: 54V59D / 32W50I101V (antibody, V domains shown, KCD119 TAF variant; full antibody captured on protein A) VH: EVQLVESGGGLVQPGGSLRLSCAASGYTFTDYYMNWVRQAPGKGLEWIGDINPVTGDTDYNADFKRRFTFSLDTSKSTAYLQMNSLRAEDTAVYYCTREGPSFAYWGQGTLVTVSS VL: DIQLTQSPSSLSASVGDRVTITCRSSQTIVHWNGDTYLEWYQQKPGKAPILLIYKVSNRFSGVPSRFSGSGSGTDFTLTISSLQPEDFATYYCFQGSHVPVTFGQGTKVEIK
Response line: -3.52

Prompt line: Hello, please tell me recorded log10 koff for this one: 54I59D / 32W54S60W101V (antibody, V domains shown, Light label printed 32W54560W101V, read as 32W54S60W101V; also called 54I59D / 32W54560W101V) VH: EVQLVESGGGLVQPGGSLRLSCAASGYTFTDYYMNWVRQAPGKGLEWIGDINPITGDTDYNADFKRRFTFSLDTSKSTAYLQMNSLRAEDTAVYYCTREGPSFAYWGQGTLVTVSS VL: DIQLTQSPSSLSASVGDRVTITCRSSQTIVHWNGDTYLEWYQQKPGKAPNLLISKVSNRWSGVPSRFSGSGSGTDFTLTISSLQPEDFATYYCFQGSHVPVTFGQGTKVEIK
Response line: -3.87

Prompt line: Hello, please tell me recorded log10 koff for this one: KCD119 TAF / KCD119 TAF (antibody, V domains shown, Humanized KCD119; tested as full antibody captured on protein A; also called D19 TAF) VH: EVQLVESGGGLVQPGGSLRLSCAASGYTFTDYYMNWVRQAPGKGLEWIGDINPNTGDTSYNADFKRRFTFSLDTSKSTAYLQMNSLRAEDTAVYYCTREGPSFAYWGQGTLVTVSS VL: DIQLTQSPSSLSASVGDRVTITCRSSQTIVHSNGDTYLEWYQQKPGKAPNLLIYKVSNRFSGVPSRFSGSGSGTDFTLTISSLQPEDFATYYCFQGSHVPPTFGQGTKVEIK
Response line: -2.20

Prompt line: Hello, please tell me recorded log10 koff for this one: 54V59D / 34D50V101V (antibody, V domains shown, KCD119 TAF variant; full antibody captured on protein A) VH: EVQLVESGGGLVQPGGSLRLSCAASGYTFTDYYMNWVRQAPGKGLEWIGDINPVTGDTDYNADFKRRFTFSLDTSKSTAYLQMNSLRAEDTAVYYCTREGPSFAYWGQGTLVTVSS VL: DIQLTQSPSSLSASVGDRVTITCRSSQTIVHSNDDTYLEWYQQKPGKAPVLLIYKVSNRFSGVPSRFSGSGSGTDFTLTISSLQPEDFATYYCFQGSHVPVTFGQGTKVEIK
Response line: -3.10

Prompt line: Hello, please tell me recorded log10 koff for this one: 54I59D / 54G60W101 (antibody, V domains shown) VH: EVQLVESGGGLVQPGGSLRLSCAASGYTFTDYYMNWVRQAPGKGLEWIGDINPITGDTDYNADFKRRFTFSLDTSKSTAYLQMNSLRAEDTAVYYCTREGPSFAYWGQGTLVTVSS VL: DIQLTQSPSSLSASVGDRVTITCRSSQTIVHSNGDTYLEWYQQKPGKAPNLLIGKVSNRWSGVPSRFSGSGSGTDFTLTISSLQPEDFATYYCFQGSHVPVTFGQGTKVEIK
Response line: -3.93

Prompt line: Hello, please tell me recorded log10 koff for this one: 28I31S54V59D / 101V (antibody, V domains shown, KCD119 TAF variant; full antibody captured on protein A) VH: EVQLVESGGGLVQPGGSLRLSCAASGYIFTSYYMNWVRQAPGKGLEWIGDINPVTGDTDYNADFKRRFTFSLDTSKSTAYLQMNSLRAEDTAVYYCTREGPSFAYWGQGTLVTVSS VL: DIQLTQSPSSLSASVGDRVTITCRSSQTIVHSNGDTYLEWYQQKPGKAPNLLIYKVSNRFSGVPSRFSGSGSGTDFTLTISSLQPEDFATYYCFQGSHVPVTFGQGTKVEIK
Response line: -3.41
